# TEST TARGET: squalene synthase (Rattus norvegicus, UniProt Q02769)
# Sequence (Q02769 1-416): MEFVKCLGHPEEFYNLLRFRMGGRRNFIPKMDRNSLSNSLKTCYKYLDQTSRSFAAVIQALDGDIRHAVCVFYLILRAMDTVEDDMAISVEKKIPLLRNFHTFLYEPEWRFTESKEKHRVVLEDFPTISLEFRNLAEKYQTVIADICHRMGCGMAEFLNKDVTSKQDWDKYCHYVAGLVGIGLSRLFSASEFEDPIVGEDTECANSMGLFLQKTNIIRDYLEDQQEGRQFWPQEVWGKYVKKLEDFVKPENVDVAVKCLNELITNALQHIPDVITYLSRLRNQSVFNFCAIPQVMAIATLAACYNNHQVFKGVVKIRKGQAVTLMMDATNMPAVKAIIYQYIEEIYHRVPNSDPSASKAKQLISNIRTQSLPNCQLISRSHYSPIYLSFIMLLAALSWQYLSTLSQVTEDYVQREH
Where a name gives a salt, the structure may show the parent alone.
RECORDED METRIC: IC50 (µM)

Check out these entries, answers already filled in.
COMPOUND	MEASUREMENT UNIT	IC50
O=C(O)CC(O)(CC(=O)N1CCCC(O)(c2ccc(-c3ccc4ccccc4c3)cc2)C1)C(=O)O (stereo not shown)	µM	0.027
CC[C@@H](COCc1ccc(-c2nc3ccccc3o2)cc1)NC(=O)CC(O)(CC(=O)O)C(=O)O (stereo partly shown) [Example 22, disodium salt]	µM	0.077
COc1cccc(-c2ccc(C3(O)CCCN(C(=O)CC(O)(CC(=O)O)C(=O)O)C3)cc2)c1 (stereo not shown) [Example 24, disodium salt]	µM	0.1
CC(O)(CNC(=O)C(O)(CC(=O)O)CC(=O)O)c1ccc(-c2ccc3ccccc3c2)cc1 (stereo not shown) [Example 28, disodium salt]	µM	0.1

I = O=C(O)CC(NC(=O)NC1CCCCC1OCc1ccc(-c2nc3ccccc3o2)cc1)C(=O)O (stereo not shown)
II = CCOC(=O)CC(O)(CC(=O)N[C@@H]1CCCC[C@H]1OCc1ccc(-c2nc3ccccc3o2)cc1)C(=O)OCC (relative stereo)
III = O=C(O)CC(O)(CC(=O)N1CCCC(COCc2ccc(-c3nc4ccccc4o3)cc2)C1)C(=O)O (stereo not shown) [Example 19, disodium salt]
Problem: Sort ascending by IC50. List each label, following the requested order.
Solution: III, I, II
(III: 0.051 µM, I: 2.6 µM, II: 10 µM)
